A collection of compounds and their measured minimal effective dose
test system: conditioned avoidance response (CAR); assay: Conditioned avoidance suppression in rats (Rat CAR); type: in vivo; conditions: po, lowest dose that significantly (P<0.05) reduced avoidance responding, read-out: Rat CAR, minimal effective dose (MED)

// minimal effective dose lookup, compound = CN1CCc2cc(Cl)c(O)cc2C(Sc2ccccc2)C1 (stereo not drawn) , result: > 30 mg/kg

// minimal effective dose lookup, compound = CCOC1CN(C)CCc2cc(Cl)c(O)cc21 (stereo not drawn) , result: > 30 mg/kg

// minimal effective dose lookup, compound = CN1CCc2cc(Cl)c(O)cc2C(OCCc2ccccc2)C1 (stereo not drawn) , result: > 30 mg/kg

// minimal effective dose lookup, compound = CN1CCc2cc(Cl)c(O)cc2C(C2CCCCC2)C1 (stereo not drawn) , result: 30 mg/kg

// minimal effective dose lookup, compound = CN1CCc2cc(Cl)c(O)cc2C(C2CCCC2)C1 (stereo not drawn) , result: > 30 mg/kg

// minimal effective dose lookup, compound = C=CCC1CN(C)CCc2cc(Cl)c(OC(=O)COC)cc21 (stereo not drawn) , result: 100 mg/kg

// minimal effective dose lookup, compound = CN1CCc2cc(Cl)c(O)cc2C2(CCCC2)C1 , result: > 30 mg/kg

// minimal effective dose lookup, compound = CN1CCc2cc(Cl)c(O)cc2C(N2CCCCC2)C1 (stereo not drawn) , result: 30 mg/kg

// minimal effective dose lookup, compound = CN1CCc2cc(Cl)c(O)cc2C(n2ccnc2)C1 (stereo not drawn) , result: > 30 mg/kg

// minimal effective dose lookup, compound = CN1CCc2cc(Cl)c(O)cc2C(OCC(F)(F)F)C1 (stereo not drawn) , result: > 30 mg/kg

// minimal effective dose lookup, compound = CN1CCc2cc(Cl)c(O)cc2C(n2cccc2)C1 (stereo not drawn) , result: > 30 mg/kg

// minimal effective dose lookup, compound = CCOC(=O)Oc1cc2c(cc1Cl)CCN(C)CC2C1CCCCC1 (stereo not drawn) , result: > 30 mg/kg

The reported numbers originate from patent US5015639A.
